Quick reference for composite z-score among some compounds
- measured-on: Streptavidin (Streptomyces avidinii) (UniProt P22629)
- Sequence (P22629 whole entry, looked up): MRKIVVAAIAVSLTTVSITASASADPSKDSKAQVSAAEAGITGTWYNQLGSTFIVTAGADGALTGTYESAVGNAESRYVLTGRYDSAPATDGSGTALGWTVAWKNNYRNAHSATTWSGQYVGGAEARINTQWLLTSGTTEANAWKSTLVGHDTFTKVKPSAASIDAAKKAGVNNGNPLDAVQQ
- protocol-notes: compounds binding control protein streptavidin – biophysical, small-molecule microarray, 635/667 nm fluorescence, artefact control for SMM compound annotation, primary screen (AID 1147);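 further: signal reflects streptavidin binding to arrayed compounds as a control protein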
- measurement-conditions: higher = more signal
quantity-name: composite z-score

INSERT INTO measurements (compound, quantity_name, number) VALUES
  ('CC(C)CN1C(=O)[C@@]2(c3ccc([N+](=O)[O-])cc3)CC(=O)N(C3CCCCC3)[C@@H]2c2ccc(CO)cc21', 'composite z-score', -0.471),
  ('C#CCN(C/C=C/c1ccccc1)[C@H](CO)c1ccccc1', 'composite z-score', 0.41),
  ('COC(=O)[C@@]1(CCC(=O)OC(C)(C)C)N=C(c2ccc(OCCCO)cc2)O[C@H]1c1ccccc1', 'composite z-score', -0.888),
  ('COc1cc2c(cc1O)C=[N+](Cc1cc3c(cc1Br)OCO3)CC2', 'composite z-score', -1.88),
  ('CN1C(=O)C2C=CC(C(O)c3ccc(F)cc3)N(N(c3ccccc3)c3ccccc3)C2C1=O (stereo not drawn)', 'composite z-score', 0.453),
  ('C=C(C(=O)CC[C@H](OC(C)=O)c1ccccc1OCCO)C(C)C', 'composite z-score', -0.455),
  ('C=CCNC(=O)[C@@H]1[C@H]2C(=O)O[C@H](c3ccccc3)[C@H](c3ccccc3)N2[C@H](c2ccc(OCCO)cc2)[C@@]12C(=O)N(C(=O)OCCOC)c1ccc(C#CCC(C(=O)OC)C(=O)OC)cc12', 'composite z-score', 0.386),
  ('CS(=O)(=O)CCOC(=O)C1=CC(CCCO)=CC(C2CC2)N(Cc2cc3c(cc2Br)OCO3)C=C1C(=O)OCCS(C)(=O)=O (stereo not drawn)', 'composite z-score', 0.635);
